src = patent US8017348B1

System: HEK293 cells
Assay: Cytotoxicity (cell count) in HEK293 cells
Conditions: dose response, eight 2-fold dilutions 10 uM to about 78 nM
MEASURED_PARAMETER: TC50

{"columns": ["COMPOUND", "TARGET_ENTITY", "READOUT_VALUE"],
 "data": [
  ["COc1cc2c(c(OC)c1OC)-c1ccc(OC)c(=O)cc1[C@@H](NC(C)=O)CC2 [ELN476311, colchicine]", "HEK293 cells", "<0.078"],
  ["O=C(O)CCCc1ccc(N(CCCl)CCCl)cc1 [ELN29018, chlorambucil]", "HEK293 cells", ">10"],
  ["N[C@@H](Cc1ccc(N(CCCl)CCCl)cc1)C(=O)O [ELN476469, melphalan]", "HEK293 cells", ">10"],
  ["COc1cc([C@@H]2c3cc4c(cc3[C@H](O)[C@H]3COC(=O)[C@H]23)OCO4)cc(OC)c1OC [ELN476767, podophyllotoxin]", "HEK293 cells", "<0.078"],
  ["Cc1ccc(S(=O)(=O)N[C@@H](Cc2ccccc2)C(=O)CCl)cc1 [ELN477056, TPCK]", "HEK293 cells", ">10"]
]}

* * *

Catalogue of molecules with associated pIC50
System: Parkin
Experiment: GFPu assay in HEK293 cells transfected with wild type Parkin (aggresome formation / proteasome function)
Assay type: cell-based, human
Conditions: Homo sapiens, HEK293; GFPu assay, Parkin transfected cells; eight 2-fold dilutions 10 uM to about 78 nM; read-out: Parkin IC50
pIC50: −log10 of the molar value.
MEASURED_PARAMETER: pIC50

{"columns": ["MOLECULE", "TARGET_ENTITY", "MEASURED_PARAMETER", "VALUE_QUALIFIER", "READOUT_VALUE"],
 "data": [
  ["Nc1ncn([C@@H]2O[C@H](CO)[C@@H](O)[C@H]2O)c(=O)n1", "Parkin", "pIC50", "=", 5.27],
  ["O=C1c2c(O)ccc(O)c2C(=O)c2c(NCCNCCO)ccc(NCCNCCO)c21", "Parkin", "pIC50", ">", 7.11],
  ["CC[C@]1(O)C[C@@H]2CN(CCc3c([nH]c4ccccc34)[C@@](C(=O)OC)(c3cc4c(cc3OC)N(C)[C@H]3[C@@](O)(C(=O)OC)[C@H](OC(C)=O)[C@]5(CC)C=CCN6CC[C@]43[C@@H]65)C2)C1", "Parkin", "pIC50", ">", 7.11],
  ["COC[C@H]1OC(=O)c2coc3c2[C@@]1(C)C1=C(C3=O)[C@@H]2CCC(=O)[C@@]2(C)C[C@H]1OC(C)=O", "Parkin", "pIC50", "=", 6.12],
  ["COC(=O)Nc1nc2ccc(C(=O)c3cccs3)cc2[nH]1", "Parkin", "pIC50", "=", 5.97],
  ["N[C@@H](Cc1ccc(N(CCCl)CCCl)cc1)C(=O)O", "Parkin", "pIC50", "=", 5.22],
  ["O=c1c(O)c(-c2cc(O)c(O)c(O)c2)oc2cc(O)cc(O)c12", "Parkin", "pIC50", "<", 5.00],
  ["O=C(O)CCCc1ccc(N(CCCl)CCCl)cc1", "Parkin", "pIC50", "=", 5.14],
  ["COc1cc([C@@H]2c3cc4c(cc3[C@H](O)[C@H]3COC(=O)[C@H]23)OCO4)cc(OC)c1OC", "Parkin", "pIC50", ">", 7.11],
  ["CC[C@]1(O)C[C@H]2CN(CCc3c([nH]c4ccccc34)[C@@](C(=O)OC)(c3cc4c(cc3OC)N(C=O)[C@H]3[C@@](O)(C(=O)OC)[C@H](OC(C)=O)[C@]5(CC)C=CCN6CC[C@]43[C@@H]65)C2)C1", "Parkin", "pIC50", ">", 7.11],
  ["CC(=O)O[C@H]1C(=O)[C@@]2(C)[C@H]([C@H](OC(=O)c3ccccc3)[C@]3(O)C[C@H](OC(=O)[C@H](O)[C@@H](NC(=O)c4ccccc4)c4ccccc4)C(C)=C1C3(C)C)[C@]1(OC(C)=O)CO[C@@H]1C[C@@H]2O", "Parkin", "pIC50", ">", 6.81],
  ["CN(Cc1cnc2nc(N)nc(N)c2n1)c1ccc(C(=O)N[C@@H](CCC(=O)O)C(=O)O)cc1 [ELN476809, methotrexate]", "Parkin", "pIC50", ">", 7.11]
]}
